System: K98450-129-R-PDC multicell spheroids, viability;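 further: spheroids exposed to agents for seven days before read-out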
runDescription: Anticancer human tumor K98450-129-R-PDC patient-derived colon adenocarcinoma cell line growth inhibition [PI3K]
statedConditions: second compound 0.01 µM; first compound 0.001 µM; stronger effect = lower value
# viability, T/C per entry
Output spec: scalar in %, unitless text.

{"molecule": "Cn1ncnc1[C@H]1c2n[nH]c(=O)c3cc(F)cc(c23)N[C@@H]1c1ccc(F)cc1 + COc1c(OCCCN2CCOCC2)ccc2c3n(c(=NC(=O)c4cnc(N)nc4)nc12)CCN3", "unitOfMeasurement": "%", "viability, T/C": 89.6}
{"molecule": "CC(=O)c1c(C)c2cnc(Nc3ccc(N4CCNCC4)cn3)nc2n(C2CCCC2)c1=O + CC(Nc1ccc2c(c1)OCCn1cc(N3C(=O)OCC3C(F)F)nc1-2)C(N)=O", "unitOfMeasurement": "%", "viability, T/C": 101}
{"molecule": "CC(=O)c1c(C)c2cnc(Nc3ccc(N4CCNCC4)cn3)nc2n(C2CCCC2)c1=O + COc1c(OCCCN2CCOCC2)ccc2c3n(c(=NC(=O)c4cnc(N)nc4)nc12)CCN3", "unitOfMeasurement": "%", "viability, T/C": 101}
{"molecule": "CC(C)n1nc(-c2ccc3oc(N)nc3c2)c2c(N)ncnc21 + CC(Nc1ccc2c(c1)OCCn1cc(N3C(=O)OCC3C(F)F)nc1-2)C(N)=O", "unitOfMeasurement": "%", "viability, T/C": 100}
{"molecule": "Cn1ncnc1[C@H]1c2n[nH]c(=O)c3cc(F)cc(c23)N[C@@H]1c1ccc(F)cc1 + CC(Nc1ccc2c(c1)OCCn1cc(N3C(=O)OCC3C(F)F)nc1-2)C(N)=O", "unitOfMeasurement": "%", "viability, T/C": 92.8}

Task item: Quick one: viability, T/C for CC(C)n1nc(-c2ccc3oc(N)nc3c2)c2c(N)ncnc21 + COc1c(OCCCN2CCOCC2)ccc2c3n(c(=NC(=O)c4cnc(N)nc4)nc12)CCN3 ?
Reply: 86.4

Hello, the source for this data is PubChem BioAssay AID1963961, in case you need it.
